assay_summary: GHS categories as the set defines them, by LD50: 1 up to 5, 2 up to 50, 3 up to 300, 4 up to 2000, 5 above 2000 mg/kg
test_parameters: rat; in vivo; po

compound	GHS category
CCCCN1CCCC1=O	4
CC(C)NP1(=S)OCc2cc([N+](=O)[O-])ccc2O1 (centres undefined)	3
Cc1cccc(N(C)C(=S)Oc2ccc3ccccc3c2)c1	5
CO[C@@]1(NC(=O)Cc2cccs2)C(=O)N2C(C(=O)O)=C(COC(N)=O)CS[C@@H]21	5
CC#Cc1cc(C)nc(Nc2ccccc2)n1	5
Cc1cc(C)[n+]([N-]C(=O)c2ccc(Cl)c(S(N)(=O)=O)c2)c(C)c1	5
Cc1cccc2c1NC(=O)C2(c1ccc(OS(=O)(=O)O)cc1)c1ccc(OS(=O)(=O)O)cc1	5
O=C(NC(=O)c1c(F)cccc1F)Nc1cc(Cl)c(F)c(Cl)c1F	5
O=C(O)c1ccc(C(=O)O)o1	5
NC1CCN(c2nc3c(cc2F)c(=O)c(C(=O)O)cn3-c2ccc(F)cc2F)C1 (centres undefined)	5
Fc1ccccc1C1c2cc3c(cc2CCN1c1ccccc1)OCO3 (centres undefined)	4
C#CCN(C(C)=O)C(=O)Oc1cccc2c1OC(C)(C)O2	4
CCCc1c(Cc2ccc(-c3sccc3-c3nn[nH]n3)cc2)c(=O)nc2nc(C)[nH]n12	4
Nc1nc(=O)[nH]cc1F	5
Nc1ccc(N=Nc2ccc(N=Nc3c(S(=O)(=O)O)cc4cc(S(=O)(=O)O)c(N=Nc5ccc(N=Nc6ccc(N)cc6N)cc5)c(O)c4c3N)cc2)c(N)c1	5
O=C(CCc1ccc2c(c1)OCO2)C1C(=O)CC(c2ccccc2)CC1=O (centres undefined)	5
CCOc1c(OC)cccc1-c1nc(=O)c2cc(C(=O)O)ccc2[nH]1	4
CC1(C)S[C@@H]2[C@H](/N=C/N3CCCCCC3)C(=O)N2[C@H]1C(=O)O	5
NC(=O)N=NC(N)=O	5
